- System: Wild type
- methodSummary: S. aureus survival, RN4220 and DeltatarO strains – OD600, teichoic acid synthesis inhibitors, primary screen (AID 463173)
- conditionNotes: S. aureus RN4220 wild type/DeltatarO growth, OD600, 18 h, active compounds read low, screened at 18.75 µg/mL (by protocol)
Out of some 52,000 compounds screened, about 1,700 (3.3%) were called active. The list comes from a sample in which actives are over-represented; it also holds close analogues and randomly drawn compounds.
Answer each item with its documented survival.
Answers are plain numbers, in %.

Previously resolved entries follow.
CCc1cccc(C)c1NS(=O)(=O)c1ccc(-n2cccn2)cc1; 128
Cc1ccc(C2Nc3ccccc3-n3c(-c4ccccc4)c4c(=O)n(C)c(=O)n(C)c4c32)cc1 (stereo not given); -8
COc1ccc(C2Nc3ccccc3-n3c(-c4ccccc4)c4c(=O)n(C)c(=O)n(C)c4c32)cc1 (stereo not given); -3
Cn1c(=O)c2c(-c3ccccc3)n3c(c2n(C)c1=O)C(c1ccc([N+](=O)[O-])cc1)Nc1ccccc1-3 (stereo not given); 21

# ---- query compound ----
Qu. // fetch Wild type survival for COc1ccc(-c2nc3ccccc3n3c(-c4ccccc4)c4c(=O)n(C)c(=O)n(C)c4c23)cc1
Ans. 80

* * *

- Test system: Wild type
- methodSummary: S. aureus survival, RN4220 and DeltatarO strains – OD600, teichoic acid synthesis inhibitors, primary screen (AID 463173)
- conditionNotes: S. aureus RN4220 wild type/DeltatarO growth, OD600, 18 h, active compounds read low, screened at 18.75 µg/mL (by protocol)
Among all 52,000 compounds or so, about 1,700 (3.3%) were called active. The sample holds actives, similar compounds and a random draw of the others, so the mix is not that of the screen.
parameter: survival (%)
One number for each entry, in %.

Examples with their reported survival follow.
Cc1cc(C(=O)N2CCN(c3cccc(C)c3C)CC2)c2c(C)nn(-c3ccccc3)c2n1; 121
CSc1ncc(C(=O)N2CCN(c3cccc(Cl)c3)CC2)c(C)n1; -3
CCCN(CCC)CCNC(=O)c1cc2c(-c3ccccc3F)nn(C)c2s1; 97

For every item below, please supply its survival.
1. Cc1ccc2oc(-c3cc(NC(=O)Cc4ccccc4)ccc3Cl)nc2c1
2. CSc1ncc(C(=O)N2CCN(c3cccc(C(F)(F)F)c3)CC2)c(C)n1
3. Cc1ccc(C(=O)COC(=O)CCC(=O)Nc2ccc(Oc3ccccc3)cc2)cc1
4. Cc1cccc(Nc2nnc(-c3ccc(C)c(S(=O)(=O)N4CCN(C)CC4)c3)c3ccccc23)c1
5. CC1Cc2ccccc2N1C(=O)c1cc2n(n1)C(C(F)(F)F)CC(c1ccco1)N2 (stereo not given)
6. Cc1ccc2oc(-c3cc(NC(=O)c4oc5ccccc5c4C)ccc3Cl)nc2c1

Ans.
[70, 73, 90, 147, 110, 81]

Qu. Would you kindly share the measured survival for Cc1ccc(Nc2ncnc3c2nc2n3CCCC2)c(Br)c1 ?
Ans. 111

* * *

- Test system: Wild type
- methodSummary: S. aureus survival, RN4220 and DeltatarO strains – OD600, teichoic acid synthesis inhibitors, primary screen (AID 463173)
- conditionNotes: S. aureus RN4220 wild type/DeltatarO growth, OD600, 18 h, screened at 18.75 µg/mL (by protocol)
Out of some 52,000 compounds screened, about 1,700 (3.3%) were called active. Rule as the data show it: active = survival mostly below about 52% (no sharp cut-off); inactive = mostly above about 56%. The sample as a whole holds a higher share of actives than the screen did.
Give one outcome, nothing more. List: active, inactive

Cc1c(Cl)cccc1NC(=O)CSc1nc2ncccc2o1; active
CCCN(CCC)S(=O)(=O)c1ccc(C(=O)N2CCn3c4c(c5cc(C)ccc53)CCCC42)cc1 (stereo unspecified); inactive
C=C(C)Cn1c(=O)c2c(nc3n2CCN3c2ccc(F)cc2)n(C)c1=O; inactive
Cc1cccc(OC(=O)c2cc(-c3ccc(Cl)cc3)on2)c1C; inactive
O=C(CSc1nc2ncccc2o1)Nc1ccc(Cl)cc1F; inactive
Cc1ccccc1C(=O)Nc1c(C)nc(Nc2ccccc2)nc1Nc1ccccc1; inactive
CCOc1cc(C(=O)N2CCn3c4c(c5cc(C)ccc53)CCCC42)cc(OCC)c1OCC (stereo unspecified); inactive
COc1ccccc1OCCn1c(NC(=O)c2ccc(Cl)cc2)nc2ccccc21; inactive
CCC12C=CCN3CCC4(c5ccc(OC)cc5NC4C(O)(C(=O)OC)C1OC(C)=O)C32 (stereo unspecified); inactive
COc1ccc(NC(=O)C2CCCN(S(=O)(=O)c3ccc(F)cc3)C2)cc1 (stereo unspecified); inactive

Qu. What did this assay record as the result for Cc1ccccc1Nc1sc(C(=O)c2ccccc2)c(N)c1C(=O)NCc1ccc(Cl)cc1 ?
Ans. inactive

Qu. Also check COc1cccc(Nc2sc(C(=O)c3ccc(Cl)cc3)c(N)c2C(=O)NCc2ccc(C)cc2)c1
Ans. inactive

Qu. Try this compound too: COc1ccc(OCCn2c(C(C)Oc3ccccc3)nc3ccccc32)cc1 (stereo unspecified)
Ans. inactive

Qu. Try this compound next: COc1cccc2cc(C(=O)Nc3ccc(CC(=O)O)cc3)c(=O)oc12
Ans. inactive

Qu. Try CCOc1ccccc1CNC(=O)C(CC)n1nc(C)c2c(C)n(-c3ccccc3)nc2c1=O (stereo unspecified) next.
Ans. inactive

Qu. Lookup Cc1ccc2c(c1)c1c3n2CCN(C(=O)c2cccc(C(F)(F)F)c2)C3CCC1 (stereo unspecified)
Ans. active
